Source of measurements: PubChem BioAssay (NCI)

growth by entry:
Tested on: TK-10 renal
Experiment: NCI-60 one-dose screen, 48 h (100 = growth as untreated, 0 = no growth, -100 = all killed)
Conditions: 10 µM unless noted
The panel holds about 83,000 compounds, 20% with a hit somewhere; the sample as a whole holds those more often.
measured-attribute: growth (%)

1) CCSc1sc(-c2ccc(C)cc2)nc1[P+](c1ccccc1)(c1ccccc1)c1ccccc1; -6.69
2) Oc1cccc2oc(=S)[nH]c12; 106
3) COc1cc2c(cc1-c1c(C)noc1C)ncc1nc(C3CCCCC3)n([C@@H](C)COC(F)F)c12; 28.9
4) OCCNc1nc(Nc2ccc(Cl)c(Cl)c2)nc2ccccc12; 50
5) CC(=O)OCCCCCCn1c2ccccc2c2c3c(c4c5ccccc5n(C)c4c21)C(=O)N(O)C3=O; 80.6
6) Clc1ccc(Cn2cc(-c3nc4ccc(Br)nc4n3Cc3ccc(Cl)cc3)c3cccnc32)cc1; 112
7) Cn1cc(-c2nc(-c3c[nH]c4ncccc34)cs2)c2cc(Br)ccc21; 63.5
8) C[N+](C)(CCCCCC[N+](C)(C)C1c2ccccc2-c2ccccc21)C1c2ccccc2-c2ccccc21; 112
9) Cn1c2ccccc2c2c3c(c4c5cccnc5[nH]c4c21)C(=O)N(O)C3=O; 97.4
10) COC(=O)[C@]12CC[C@@H](C)[C@H](C)[C@@H]1C1=CC[C@@H]3[C@@]4(C)C(c5ncon5)=C[C@@](C)(CO)C4=CC[C@@]3(C)[C@]1(C)CC2; 1.76
11) CCN(CC)CCCCCCNc1ccnc2cc(Cl)ccc12; 113
12) C#CCn1c(C)cc(C)c(C#N)c1=O; 94.2
13) CN1CCN(CCOc2ccc(-c3cnc4c(-c5cccc(F)c5)cnn4c3)cc2)CC1; 102
14) COC(=O)C(Cc1ccccc1)n1cc(COc2nc(Cl)nc(Nc3ccc(Cl)cc3)n2)nn1 (stereo not given); 104
15) CCC(c1ccc(OC)cc1)C(CC)c1ccc(O)c(CN2CCCCC2)c1 (stereo not given); 84.6

* * *

System: OVCAR-3 ovarian
Assay: NCI-60 one-dose screen, 48 h
Conditions: 10 µM unless noted
This is part of a sample that, as a whole, favours compounds with a hit. Of some 83,000 tested, about 20% had one in any assay. Active and inactive are the calls of the source. Rule for the calls: active = growth percent below 10; inactive = the rest.
Classes used: 1 = active, -1 = inactive

1. Cn1cc(-c2csc(-c3c[nH]c4ccc(F)cc34)n2)c2cccnc21; 1
2. O=C(Nc1ccc(/C=C2\SC(=O)N(Cc3ccc(OC(F)(F)F)cc3)C2=O)cc1)c1ccc(Cl)c([N+](=O)[O-])c1; -1
3. CCN(CC)c1ccc(/C=C/c2cc(C)c3ccccc3n2)cc1; -1
4. Cc1cc(C)n(Cc2cc(C(C)(C)C)cc(C(C)(C)C)c2)c(=O)c1C#N; -1
5. O=C1CN(c2ccccc2)C(=O)C1C(=O)Nc1ccc(Cl)c(Cl)c1 (stereo unspecified); -1
6. N=c1c(S(=O)(=O)c2ccccc2)cc2c(=O)n3ccccc3nc2n1C1CCCC1; -1
7. CC(=O)Nc1cc(F)cc(C(F)(F)F)c1Cl; -1
8. Cc1ccc2c(c1)c1nc3cc(C)c(C)cc3nc1n2CCN(C)C; -1
9. COc1cc2c(cc1-c1c(C)noc1C)ncc1nc(C3CCC(F)(F)CC3)n([C@@H](C)COC(F)F)c12; -1
10. Brc1cnc2[nH]cc(-c3nnc(-c4ccccc4)o3)c2c1; -1
11. O=C(/C=C\c1ccc2c(c1)OCO2)/C=C/c1ccc2c(c1)OCO2; -1
12. Clc1ccc(Cn2cc(-c3nc4ccc(Br)nc4n3Cc3ccc(Cl)cc3)c3cccnc32)cc1; -1
13. O=C(NO)c1ccc(Cn2c(=O)n(-c3ccccc3)c(=O)c3ccccc32)cc1; -1
14. O=C1/C(=C\c2ccco2)SC(=S)N1CCc1ccc(O)cc1; -1
15. Cc1cc(N2CCN(C)CC2)nc(N(CCNc2ccnc3cc(Cl)ccc23)Cc2ccco2)n1; 1
16. COc1cccc2c1C(=O)c1c(O)c3c(c(O)c1C2=O)C[C@@](O)(C(=O)CO)C[C@@H]3OC1C[C@H](N)[C@H](O)[C@H](C)O1 (stereo partly specified); 1
